- Target Or Test System: Recombinant human TDO comprising amino acids 19-407 (Homo sapiens)
- Construct: Recombinant human TDO comprising amino acids 19-407 with a N-terminal hexahistidine tag; hexahistidine (His6) (N); made in house; host or cells: E. coli
- Sequence (P48775 19-406 limits assumed): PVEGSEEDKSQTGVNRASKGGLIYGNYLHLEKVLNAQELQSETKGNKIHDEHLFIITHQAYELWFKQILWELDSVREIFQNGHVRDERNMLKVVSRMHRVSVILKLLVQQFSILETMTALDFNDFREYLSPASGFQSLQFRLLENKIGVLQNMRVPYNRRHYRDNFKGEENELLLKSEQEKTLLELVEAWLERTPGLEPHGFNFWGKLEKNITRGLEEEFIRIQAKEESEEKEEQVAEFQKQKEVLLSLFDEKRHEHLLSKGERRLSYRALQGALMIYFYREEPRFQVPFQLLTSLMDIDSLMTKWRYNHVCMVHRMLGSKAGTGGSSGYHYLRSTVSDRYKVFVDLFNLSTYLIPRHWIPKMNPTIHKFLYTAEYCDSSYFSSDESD
- Procedure Text: TDO2 enzymatic assay (NFK quantified by LCMS)
- Type: biochemical
- Condition Info: 15 nM enzyme, 200 μM L-tryptophan, pH7, 30 minutes pre-incubation at RT; mean values when measured multiple times; read-out: hTDO activity (IC50 in nM)
The entries below come with measured IC50 values attached.

Solved cases below.
CC(C)C(=O)Nc1ccc(-n2cc(C(O)c3c(C4CC4)sc4cncn34)nn2)cc1 (racemic) [Example 192]    > 10200 nM
Oc1ccc(-n2cc(C(O)c3c([C@@H]4C[C@H]4F)sc4cncn34)nn2)cc1Cl (relative stereo) [Example 328]    > 10200 nM
Nc1ccc(-n2cc(C(O)c3c(C4CC4)sc4cncn34)nn2)cc1Cl (racemic) [Example 278]    > 10200 nM
CC1NS(=O)(=O)c2ccc(-n3cc(C(O)c4c(C5CC5)sc5cncn45)nn3)cc21 (stereo not drawn) [Example 228]    > 10200 nM
O=C(NC1CC1)c1ccc(-n2cc(C(O)c3c(C4CC4)sc4cncn34)nn2)cc1 (racemic) [Example 105]    > 10200 nM
Cc1sc2cncn2c1C(O)c1cnn(-c2ccccc2)c1 (racemic) [Example 96]    2530 nM
CCc1sc2cncn2c1C(O)c1cn(-c2ccc(NC(=O)OC(C)(C)C)cc2F)nn1 (racemic) [Example 245]    6810 nM
OC(c1cn(-c2ccc(CN3CCOCC3)cc2)nn1)c1c(C2CC2)sc2cncn12 (racemic) [Example 37]    > 10200 nM
OC(c1cn(-c2ccc3cc[nH]c3c2)nn1)c1c(C2CC2)sc2cncn12 (racemic) [Example 21]    > 10200 nM
CCNC(=O)c1ccc(-n2cc(C(O)c3c(CC)sc4cncn34)nn2)cc1 (racemic) [Example 128]    9780 nM

Reported IC50, molecule OC(c1cn(-c2ccnc3ccccc23)nn1)c1c(C2CC2)sc2cncn12 (racemic) [Example 25] : ____
> 10200 nM
